targetDesc: UniProt Q99572
Sequence (Q99572 whole entry): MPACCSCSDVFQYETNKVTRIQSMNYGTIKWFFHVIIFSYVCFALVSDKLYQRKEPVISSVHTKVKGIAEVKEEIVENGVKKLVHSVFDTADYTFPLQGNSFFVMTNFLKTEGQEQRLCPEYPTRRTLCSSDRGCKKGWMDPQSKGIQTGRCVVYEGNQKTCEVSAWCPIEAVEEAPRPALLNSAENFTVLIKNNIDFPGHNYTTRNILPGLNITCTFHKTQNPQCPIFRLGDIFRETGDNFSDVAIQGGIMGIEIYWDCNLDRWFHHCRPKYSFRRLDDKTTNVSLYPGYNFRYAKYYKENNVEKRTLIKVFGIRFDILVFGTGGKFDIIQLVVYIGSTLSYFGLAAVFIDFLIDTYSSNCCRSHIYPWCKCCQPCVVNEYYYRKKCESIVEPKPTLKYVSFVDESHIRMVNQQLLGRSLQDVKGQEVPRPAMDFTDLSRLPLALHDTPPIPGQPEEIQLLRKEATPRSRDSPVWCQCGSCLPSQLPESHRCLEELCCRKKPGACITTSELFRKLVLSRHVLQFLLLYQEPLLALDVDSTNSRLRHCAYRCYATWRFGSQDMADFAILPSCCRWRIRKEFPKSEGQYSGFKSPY
assayInfo: Human P2X7 functional assay (Ca2+ influx, Fluo-4, FDSS)
details: antagonistic activity with respect to the human P2X7 receptor; BzATP final concentration 80 microM
parameter: IC50

Request: Request the reported IC50 associated with O=C(NCc1cccc(Cl)c1Cl)[C@]1(F)CC[C@@H](O)c2ncccc21 (stereo in doubt) [Example 121]
Response: 50 to 100 nM

Request: Request the reported IC50 associated with O=C(NCc1cccc(C(F)(F)F)c1Cl)C1(F)CCC(O)c2ncccc21 (stereo not drawn) [Example 19]
Response: < 50 nM

Request: Request the reported IC50 associated with C[C@@H](NC(=O)[C@]1(F)CC[C@@H](O)c2ncccc21)c1ccc(Cl)cc1Cl [Example 119]
Response: < 50 nM

Request: Request the reported IC50 associated with O=C1CC[C@@](F)(C(=O)NCc2ncc(Cl)cc2Cl)c2cccnc21 [Example 255]
Response: 101 to 300 nM

Request: Request the reported IC50 associated with O=C(NCc1c(F)cc(Cl)cc1Cl)[C@H]1CC[C@H](O)c2ncccc21 [Example 69]
Response: 301 to 1000 nM

Request: Request the reported IC50 associated with COC[C@]1(O)CC[C@@](F)(C(=O)NCc2ccc(Cl)cc2Cl)c2cccnc21 (relative stereo) [Example 41]
Response: < 50 nM
